Reference for the values: patent US9783536B2

assay_system: human PI3Kα protein (Homo sapiens, UniProt P42336)
Construct: purchased Carna Biosciences, Inc; host or cells: baculovirus expression system
Sequence (P42336 whole entry): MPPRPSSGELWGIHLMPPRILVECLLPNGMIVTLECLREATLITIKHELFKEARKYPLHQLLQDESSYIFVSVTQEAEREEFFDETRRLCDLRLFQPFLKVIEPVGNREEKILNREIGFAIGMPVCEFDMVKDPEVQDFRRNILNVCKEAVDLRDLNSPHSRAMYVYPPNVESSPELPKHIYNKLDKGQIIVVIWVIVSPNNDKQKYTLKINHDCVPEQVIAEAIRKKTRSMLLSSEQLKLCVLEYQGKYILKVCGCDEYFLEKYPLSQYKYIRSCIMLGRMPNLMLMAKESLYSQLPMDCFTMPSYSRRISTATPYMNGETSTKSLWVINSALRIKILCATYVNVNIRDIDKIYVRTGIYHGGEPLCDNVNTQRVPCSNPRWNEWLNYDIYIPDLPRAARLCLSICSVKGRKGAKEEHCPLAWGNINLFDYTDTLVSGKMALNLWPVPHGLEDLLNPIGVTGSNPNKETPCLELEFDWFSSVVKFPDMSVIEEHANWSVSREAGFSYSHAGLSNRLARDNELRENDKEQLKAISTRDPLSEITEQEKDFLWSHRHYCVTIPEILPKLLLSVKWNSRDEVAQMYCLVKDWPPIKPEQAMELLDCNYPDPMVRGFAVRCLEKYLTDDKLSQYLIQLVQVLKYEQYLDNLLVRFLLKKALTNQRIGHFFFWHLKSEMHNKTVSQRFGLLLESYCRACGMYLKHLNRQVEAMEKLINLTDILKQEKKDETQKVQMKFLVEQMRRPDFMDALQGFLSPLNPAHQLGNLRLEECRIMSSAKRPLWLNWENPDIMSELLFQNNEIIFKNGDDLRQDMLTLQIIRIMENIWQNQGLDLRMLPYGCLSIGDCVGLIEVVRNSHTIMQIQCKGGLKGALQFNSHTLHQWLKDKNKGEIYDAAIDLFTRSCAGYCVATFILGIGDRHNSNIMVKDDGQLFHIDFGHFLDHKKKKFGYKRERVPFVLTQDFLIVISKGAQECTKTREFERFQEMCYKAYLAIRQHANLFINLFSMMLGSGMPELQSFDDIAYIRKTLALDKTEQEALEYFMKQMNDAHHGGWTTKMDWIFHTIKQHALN
Sequence (P27986 whole entry partner): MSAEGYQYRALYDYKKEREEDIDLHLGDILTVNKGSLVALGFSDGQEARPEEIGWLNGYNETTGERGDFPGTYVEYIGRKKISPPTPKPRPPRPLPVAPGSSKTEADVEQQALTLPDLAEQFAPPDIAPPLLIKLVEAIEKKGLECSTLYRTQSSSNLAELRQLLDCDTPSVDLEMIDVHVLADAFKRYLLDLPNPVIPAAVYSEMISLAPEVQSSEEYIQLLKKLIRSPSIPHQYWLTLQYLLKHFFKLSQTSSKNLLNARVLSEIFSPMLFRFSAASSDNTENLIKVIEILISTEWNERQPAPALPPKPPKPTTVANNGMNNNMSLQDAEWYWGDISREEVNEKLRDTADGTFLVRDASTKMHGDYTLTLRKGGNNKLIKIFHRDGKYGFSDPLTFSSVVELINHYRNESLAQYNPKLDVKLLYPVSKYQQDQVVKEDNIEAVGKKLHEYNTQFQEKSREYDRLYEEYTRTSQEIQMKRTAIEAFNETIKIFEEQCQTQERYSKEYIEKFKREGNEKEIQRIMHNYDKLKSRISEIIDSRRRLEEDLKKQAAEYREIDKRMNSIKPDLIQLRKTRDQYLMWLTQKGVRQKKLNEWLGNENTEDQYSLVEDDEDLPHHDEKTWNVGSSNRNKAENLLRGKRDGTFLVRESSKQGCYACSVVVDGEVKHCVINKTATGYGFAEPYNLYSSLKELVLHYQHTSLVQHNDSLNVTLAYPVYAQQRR
procedure_summary: PI3Kα enzyme assay (ADP-Glo)
Format: biochemical
experimental_setup: read-out: PI3Kα enzyme inhibitory activity
Listed below: IC50 values for each entry.

COc1cccc(Cn2cc(-c3cnc4ccc(Nc5cc(C(C)C)cnn5)nc4c3)cn2)n1: < 1000 nM

// query Give IC50 for CC(C)c1cnnc(Nc2ccc3ncc(-c4cnn(CCCN5CCC(F)(F)CC5)c4)cc3n2)c1 tested on human PI3Kα protein (Homo sapiens, UniProt P42336).
// result < 1000 nM

// query Give IC50 for COCCNc1nn(C)cc1-c1cnc2ccc(Nc3cc(C(C)C)cnn3)nc2c1 tested on human PI3Kα protein (Homo sapiens, UniProt P42336).
// result < 1000 nM

// query Give IC50 for CC(C)c1cnnc(Nc2ccc3ncc(-c4cn(C)nc4N)cc3n2)c1 tested on human PI3Kα protein (Homo sapiens, UniProt P42336).
// result < 1000 nM

// query Give IC50 for CC(C)c1cnnc(Nc2ccc3ncc(-c4cncs4)cc3n2)c1 tested on human PI3Kα protein (Homo sapiens, UniProt P42336).
// result < 1000 nM

// query Give IC50 for CC(C)c1cnnc(Nc2ccc3ncc(-c4cnn(CCCN5CC(OCc6ccccc6)C5)c4)cc3n2)c1 tested on human PI3Kα protein (Homo sapiens, UniProt P42336).
// result < 1000 nM

// query Give IC50 for Cc1nn(C)cc1-c1cnc2ccc(Nc3cc(CS(=O)(=O)N(C)C)cnn3)nc2c1 tested on human PI3Kα protein (Homo sapiens, UniProt P42336).
// result < 1000 nM

// query Give IC50 for CC(C)c1cnnc(Nc2ccc3ncc(C(=O)NCCCO)cc3n2)c1 tested on human PI3Kα protein (Homo sapiens, UniProt P42336).
// result 1000 to 10000 nM

// query Give IC50 for CC(C)c1cnnc(Nc2ccc3ncc(-c4cnn(CCC(O)C(F)(F)F)c4)cc3n2)c1 (centres unmarked) tested on human PI3Kα protein (Homo sapiens, UniProt P42336).
// result < 1000 nM

// query Give IC50 for CC1(C)COc2nnc(Nc3ccc4ncc(-c5cnn(CCCN6CCCC6)c5)cc4n3)cc21 tested on human PI3Kα protein (Homo sapiens, UniProt P42336).
// result < 1000 nM

// query Give IC50 for CC(C)c1cnnc(Nc2ccc3ncc(/C=C/c4cccnc4)cc3n2)c1 tested on human PI3Kα protein (Homo sapiens, UniProt P42336).
// result < 1000 nM

---

Listed below: IC50 values for each entry.
assay_system: human PI3Kα protein (Homo sapiens, UniProt P42336)
Construct: purchased Carna Biosciences, Inc; host or cells: baculovirus expression system
procedure_summary: PI3Kα enzyme assay (ADP-Glo)
Type: biochemical
experimental_setup: 4.5 nmol/L PI3Kα, PIP2 50 μmol/L, ATP 100 μmol/L; read-out: PI3Kα enzyme inhibitory activity

Consider the following illustrative entries.
COCc1cnnc(Nc2ccc3ncc(-c4cnn(CCCN5CCCC5)c4)cc3n2)c1 [Example 0018]: < 1000 nM
Cc1nn(C)cc1-c1cnc2ccc(Nc3nnc(C(C)C)s3)nc2c1 [Example 0120]: < 1000 nM

// query Identify measured IC50 associated with Cc1cnnc(Nc2ccc3ncc(-c4cn[nH]c4)cc3n2)c1 [Example 0154]
// result 1000 to 10000 nM

---

Listed below: pIC50 values for each entry.
assay_system: human PI3Kα protein (Homo sapiens)
Construct: purchased Carna Biosciences, Inc; host or cells: baculovirus expression system
procedure_summary: PI3Kα enzyme assay (ADP-Glo)
Type: biochemical
experimental_setup: 4.5 nmol/L PI3Kα, PIP2 50 μmol/L, ATP 100 μmol/L; read-out: PI3Kα enzyme inhibitory activity
pIC50: −log10 of the molar value.

Consider the following illustrative entries.
CC(=O)N1CCN(c2cnc3ccc(Nc4nnc(C5CCCC5)s4)nc3c2)CC1: 5.00 to 6.00
CC(C)c1cncc(Nc2cnc3ccc(Nc4nnc(C5CCCC5)s4)nc3c2)c1: > 6.00

// next entry
// query Identify measured pIC50 associated with CN1CCCN(c2cnc3ccc(Nc4nnc(C5CCCC5)s4)nc3c2)CC1
// result 4.30 to 5.00

---

assay_system: human PI3Kα protein (Homo sapiens, UniProt P42336)
Construct: purchased Carna Biosciences, Inc; host or cells: baculovirus expression system
procedure_summary: PI3Kα enzyme assay (ADP-Glo)
Type: biochemical
experimental_setup: 4.5 nmol/L PI3Kα, PIP2 50 μmol/L, ATP 100 μmol/L; read-out: PI3Kα enzyme inhibitory activity
Structures can show the parent of a compound that is named as a salt.
Listed below: IC50 values for each entry.

Consider the following illustrative entries.
c1nc2ccc(Nc3ncc(C4CCCC4)s3)nc2cc1-c1cnn(CCCN2CCCC2)c1 [Example 0126]: < 1000 nM
CN1CCN(c2cnc3ccc(Nc4nnc(C5CCCC5)s4)nc3c2)CCC1=O [Example 0064, hydrochloride]: 1000 to 10000 nM
OC1CCN(c2cnc3ccc(Nc4nnc(C5CCCC5)s4)nc3c2)CC1 [Example 0051]: 1000 to 10000 nM

// query Identify measured IC50 associated with CCOC(=O)c1csc(Nc2ccc3ncc(-c4cnn(C)c4)cc3n2)n1 [Example 0034]
// result 1000 to 10000 nM

// query Identify measured IC50 associated with OCCOc1cncc(Nc2cnc3ccc(Nc4nnc(C5CCCC5)s4)nc3c2)c1 [Example 0097]
// result < 1000 nM

// query Identify measured IC50 associated with c1nnc(Nc2ccc3ncc(Nc4cn[nH]c4)cc3n2)s1 [Example 0186]
// result < 1000 nM

// query Identify measured IC50 associated with c1ncc(N2CCCCC2)cc1Nc1cnc2ccc(Nc3nnc(C4CCCC4)s3)nc2c1 [Example 0101]
// result < 1000 nM

// query Identify measured IC50 associated with CN(c1cccnc1)c1cnc2ccc(Nc3nnc(C4CCCC4)s3)nc2c1 [Example 0071]
// result < 1000 nM

// query Identify measured IC50 associated with CCCc1nn(C)cc1-c1cnc2ccc(Nc3nnc(C4CCCC4)s3)nc2c1 [Example 0112]
// result < 1000 nM

// query Identify measured IC50 associated with O=C(Cc1ccc(Nc2cnc3ccc(Nc4nnc(C5CCCC5)s4)nc3c2)cc1)N1CCOCC1 [Example 0105]
// result < 1000 nM

// query Identify measured IC50 associated with COC[C@@H]1CCCN1c1cnc2ccc(Nc3nnc(C4CCCC4)s3)nc2c1 [Example 0061]
// result 1000 to 10000 nM

// query Identify measured IC50 associated with CC(C)c1cnnc(Nc2ccc3ncc(-c4cnn(CCCN5CCCC5)c4)cc3n2)c1 [Example 0148]
// result < 1000 nM

// query Identify measured IC50 associated with O=S(=O)(Nc1ccccc1)c1nnc(Nc2ccc3ncc(-c4cnn(CCN5CCOCC5)c4)cc3n2)s1 [Example 0188, sodium salt]
// result < 1000 nM

// query Identify measured IC50 associated with Cn1cc(-c2cnc3ccc(Nc4nnc(C5CCCC5)s4)nc3c2)c(-c2ccccc2)n1 [Example 0129]
// result < 1000 nM

// query Identify measured IC50 associated with CC(=O)N1CCC(Nc2cnc3ccc(Nc4nnc(C5CCCC5)s4)nc3c2)C1 (stereo not shown) [Example 0065]
// result 1000 to 10000 nM

---

Listed below: IC50 values for each entry.
assay_system: human PI3Kα protein (Homo sapiens, UniProt P42336)
Construct: purchased Carna Biosciences, Inc; host or cells: baculovirus expression system
procedure_summary: PI3Kα enzyme assay (ADP-Glo)
Format: biochemical
experimental_setup: read-out: PI3Kα enzyme inhibitory activity

Consider the following illustrative entries.
CC(C)NC(=O)N1CCC(Cn2cc(-c3cnc4ccc(Nc5cc(C(C)C)cnn5)nc4c3)cn2)CC1: < 1000 nM
CC(C)c1cnnc(Nc2ccc3ncc(-c4cnn(Cc5ccc([N+](=O)[O-])cc5)c4)cc3n2)c1: < 1000 nM
CC(C)c1cnnc(Nc2ccc3ncc(-c4ccnc(O)c4)cc3n2)c1: < 1000 nM
Cc1ccc(-c2cnc3ccc(Nc4cc(C(C)C)cnn4)nc3c2)cn1: 1000 to 10000 nM
CC(C)c1cnnc(Nc2ccc3ncc(-c4cnn(CCF)c4)cc3n2)c1: < 1000 nM
CC(C)c1cnnc(Nc2ccc3ncc(-c4cnn(CCCN5CCN(c6cccnc6)CC5)c4)cc3n2)c1: < 1000 nM

// query Give IC50 for CC(C)c1cnnc(Nc2ccc3ncc(-c4cnn(CCCN5CCOCC5C)c4)cc3n2)c1 (stereo not drawn) tested on human PI3Kα protein (Homo sapiens, UniProt P42336).
// result < 1000 nM

// query Give IC50 for CCCCOC1CN(CCCn2cc(-c3cnc4ccc(Nc5cc(C(C)C)cnn5)nc4c3)cn2)C1 tested on human PI3Kα protein (Homo sapiens, UniProt P42336).
// result < 1000 nM

// query Give IC50 for CC(C)c1cnnc(Nc2ccc3ncc(-c4cnn(CC5CCOCC5)c4)cc3n2)c1 tested on human PI3Kα protein (Homo sapiens, UniProt P42336).
// result < 1000 nM

// query Give IC50 for CC(C)c1cnnc(Nc2ccc3ncc(-c4cn(C)nc4-c4ccc(OCC(=O)N(C)C)cc4)cc3n2)c1 tested on human PI3Kα protein (Homo sapiens, UniProt P42336).
// result < 1000 nM
